Test system: COX-2
Assay explanation: COX-2 protein expression in LPS-stimulated THP-1 macrophages (western blot)
Type: cell-based, human
Condition details: 8 μg/mL, 1 h pretreatment, then LPS 1 μg/mL 24 h
Recorded metric: effect on expression of COX-2 (in words)

COc1c(C)cc(O)cc1/C=C/C(C)(O)CC(=O)/C=C(\C)CCCC(C)C(=O)/C=C/C(C)(C)O (stereo not shown) :: no significant effect
COc1c(C)cc(O)cc1C/C=C(\C)CC(=O)/C=C(/C)CCCC(C)(O)C(=O)/C=C/C(C)(C)O (stereo not shown) :: no significant effect

* * *

Tested on: human lung adenocarcinoma A549 cells
Assay explanation: Cytotoxicity against lung cancer cells A549 (MTT assay)
Format: cell-based
Condition details: SI = IC50 value for normal cells (MRC-5)/IC50 value for cancer cells (A549)
So I've got a bunch of molecules here, and I need their Selectivity Index SI values.
Give bare numbers.

Check out these entries, answers already filled in.
COc1c(C)cc(O)cc1C/C=C(\C)CC(=O)/C=C(/C)CCCC(C)(O)C(=O)/C=C/C(C)(C)O (stereo not shown) :: 1.22
COc1c(C)cc(O)cc1C/C=C(\C)CC(=O)/C=C(\C)CCCC(C)=O :: 2.12
COc1c(C)cc(O)cc1/C=C/C(C)(O)CC(=O)/C=C(\C)CCCC(C)C(=O)/C=C/C(C)(C)O (stereo not shown) :: 1.28

Next:
Exercise: Find the recorded Selectivity Index SI belonging to COc1c(C)cc(O)cc1/C=C/C(C)(O)CC(=O)/C=C(/C)CCCC(C)C(=O)/C=C/C(C)(C)O (stereo not shown) and report it.
Solution: 1.55
